Target: T1, recombinant human CTLA4-his protein (Acro biosystems, Cat#CT4-H5229) (human, UniProt P16410 37-162)
T1 construct: bought recombinant protein; not shown: his tag
T1 sequence (looked up): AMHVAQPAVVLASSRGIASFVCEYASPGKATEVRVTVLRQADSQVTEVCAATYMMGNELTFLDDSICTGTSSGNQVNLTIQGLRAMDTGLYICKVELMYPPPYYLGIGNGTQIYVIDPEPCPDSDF
Test: SPR, Biacore T200; antibody captured, CTLA4-his as analyte
Overview of recorded kon for various binders

binder: mouse anti-CTLA4 monoclonal antibody D1B8 (antibody, V domains shown, mouse mAb purified from hybridoma supernatant) VH: QIQLQQSGPELVKPGASVKISCKASGYTFTDYYINWVKQRPGQGLEWIGWIYPGNNNTRYNEKFKGKATLTIDTSSSTAFMHLSSLTSEDSAVYFCARYYFDYWGQGTTLTVSS VL: DIQMTQSPSSLSASLGERISLTCRASQEITGYLSWLQQKPDGTIKRLIYAASTLDSGVPQRFSGSRSGSDYSLTISSLESEDFADYYCLQYASYPRTFGGGTKLEIK
testResult: 221000 M⁻¹ s⁻¹
//
binder: mouse anti-CTLA4 monoclonal antibody D1G6 (antibody, V domains shown, mouse mAb purified from hybridoma supernatant) VH: EVQLQQSGPELVKPGASVKLSCKASGNTFTTYVLNWVKQKPGQGLEWIGYFNPYNDAIKYNEKFKGKATLTSDKSSSTAYMELSSLTSEDSAVYYCARFEGGGYAMDYWGQGTSVTVSS VL: DIVLTQSPASLAVSLGQRATISCRASQSVGTSSYSYIHWYQQKPGQPPKLLIKYASDLESGVPARFSGSGSGTDFTLNIHPVEEEDTATYYCQHSWEIPYTFGGGTKLEIK
testResult: 76700 M⁻¹ s⁻¹

Turning now to a further record.
Assign kon to the following record: mouse anti-CTLA4 monoclonal antibody C1G4 (antibody, V domains shown, mouse mAb purified from hybridoma supernatant) VH: EVKLDETGGGLVQPGRPIKLSCVASGFTFSDNWMNWVRQSPEKGLEWVAQIRNKPYNYETYYSDSVKGRFTISRDDSKSSVYLQMNNLRTKDMGIYYCTGGFTYWGQGTLVTVSA VL: DIQMTQSPPSLSASVGETVTITCGASENIYGGLNWYQRKQGKSPQLLIYGATNLADGMSSRFSGSGSGRQYSLKISRLHPDDVATYYCQNVLNTPYTFGGGTKLEIK 290000 M⁻¹ s⁻¹
